- TEST TARGET: Nav1.7 (or SCN9A) channel (Homo sapiens)
- Construct: expressed in transfected cells
- ASSAY: Nav1.7 (hSCN9A) electrophysiology assay, PatchXpress platform
- Assay type: cell-based
- CONDITIONS: estimated IC50 from single point electrophysiology data, HEK cells stably expressing hSCN9A, held at V1/2 of inactivation, read-out: Nav1.7 EIC50
Listed compounds paired with reported IC50
EXPERIMENTAL ENDPOINT: IC50

INSERT INTO assay_data (compound, experimental_endpoint, endpoint_value) VALUES
  ('COc1cccc(COc2cc(F)c(C(=O)NS(C)(=O)=O)cc2F)c1OC [Example 206]', 'IC50', '> 1 µM'),
  ('CS(=O)(=O)NC(=O)c1ccc(OCc2cccc(F)c2F)cc1 [Example 170]', 'IC50', '> 3 µM'),
  ('CS(=O)(=O)NC(=O)c1ccc(OCc2ccccc2-c2ccccc2)c(C#N)c1 [Example 93]', 'IC50', '> 3 µM');

----------
- TEST TARGET: Nav1.7 (or SCN9A) channel (Homo sapiens, UniProt Q15858)
- Construct: expressed in transfected cells
- Sequence (Q15858 whole entry): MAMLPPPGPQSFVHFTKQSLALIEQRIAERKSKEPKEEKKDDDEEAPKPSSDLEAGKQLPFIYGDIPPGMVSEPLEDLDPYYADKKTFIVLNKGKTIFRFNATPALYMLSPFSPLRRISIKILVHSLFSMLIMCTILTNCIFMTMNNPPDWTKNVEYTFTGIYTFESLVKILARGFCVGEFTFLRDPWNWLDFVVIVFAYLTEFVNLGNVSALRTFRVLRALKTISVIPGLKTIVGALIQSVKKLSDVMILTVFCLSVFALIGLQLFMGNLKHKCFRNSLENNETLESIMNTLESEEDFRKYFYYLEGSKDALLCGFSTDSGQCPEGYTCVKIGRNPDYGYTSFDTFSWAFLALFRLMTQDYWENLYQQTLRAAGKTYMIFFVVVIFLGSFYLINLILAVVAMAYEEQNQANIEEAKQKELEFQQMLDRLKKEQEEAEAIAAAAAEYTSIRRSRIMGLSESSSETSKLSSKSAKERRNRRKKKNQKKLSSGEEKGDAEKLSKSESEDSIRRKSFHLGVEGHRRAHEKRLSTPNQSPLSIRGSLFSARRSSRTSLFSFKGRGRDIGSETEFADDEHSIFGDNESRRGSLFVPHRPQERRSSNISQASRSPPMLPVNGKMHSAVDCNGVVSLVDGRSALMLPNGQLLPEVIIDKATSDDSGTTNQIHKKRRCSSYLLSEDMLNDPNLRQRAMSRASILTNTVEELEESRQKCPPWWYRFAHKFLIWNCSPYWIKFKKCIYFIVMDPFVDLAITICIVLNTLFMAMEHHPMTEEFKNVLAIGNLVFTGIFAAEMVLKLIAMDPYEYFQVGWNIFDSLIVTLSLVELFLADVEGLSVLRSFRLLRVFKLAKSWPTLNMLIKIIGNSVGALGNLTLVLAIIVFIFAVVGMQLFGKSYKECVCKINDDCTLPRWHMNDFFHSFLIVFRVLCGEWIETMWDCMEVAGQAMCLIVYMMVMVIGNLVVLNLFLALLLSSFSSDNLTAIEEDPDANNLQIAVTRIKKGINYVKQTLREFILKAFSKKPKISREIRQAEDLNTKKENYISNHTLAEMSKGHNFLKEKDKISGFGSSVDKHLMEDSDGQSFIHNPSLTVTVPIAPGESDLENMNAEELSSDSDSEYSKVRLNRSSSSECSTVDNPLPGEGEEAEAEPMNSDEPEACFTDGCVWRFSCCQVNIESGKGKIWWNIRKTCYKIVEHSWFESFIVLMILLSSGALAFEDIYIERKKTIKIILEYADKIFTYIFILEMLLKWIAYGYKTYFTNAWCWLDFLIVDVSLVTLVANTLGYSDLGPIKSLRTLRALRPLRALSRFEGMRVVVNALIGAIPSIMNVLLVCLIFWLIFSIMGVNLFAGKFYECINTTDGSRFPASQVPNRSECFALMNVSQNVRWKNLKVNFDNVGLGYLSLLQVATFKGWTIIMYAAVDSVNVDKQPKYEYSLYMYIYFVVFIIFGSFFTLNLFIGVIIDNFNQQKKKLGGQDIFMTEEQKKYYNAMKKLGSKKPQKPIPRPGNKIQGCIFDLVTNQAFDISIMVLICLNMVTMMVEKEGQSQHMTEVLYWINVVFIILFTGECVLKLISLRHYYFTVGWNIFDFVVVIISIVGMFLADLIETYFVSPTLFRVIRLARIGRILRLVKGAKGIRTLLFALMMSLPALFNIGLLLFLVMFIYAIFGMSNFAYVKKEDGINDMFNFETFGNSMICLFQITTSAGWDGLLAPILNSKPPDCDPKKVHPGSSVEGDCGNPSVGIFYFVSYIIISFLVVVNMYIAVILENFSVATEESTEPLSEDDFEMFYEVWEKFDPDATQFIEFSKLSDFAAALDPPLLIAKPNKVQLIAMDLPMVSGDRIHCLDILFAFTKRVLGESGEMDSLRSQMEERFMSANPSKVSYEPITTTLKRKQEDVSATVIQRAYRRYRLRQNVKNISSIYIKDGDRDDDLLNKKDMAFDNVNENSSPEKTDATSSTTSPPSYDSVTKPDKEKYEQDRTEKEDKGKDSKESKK
- ASSAY: Nav1.7 (hSCN9A) electrophysiology assay, PatchXpress platform
- Type: cell-based
- CONDITIONS: estimated IC50 from single point electrophysiology data, HEK cells stably expressing hSCN9A, held at V1/2 of inactivation, read-out: Nav1.7 EIC50
pIC50: −log10 of the molar value.
EXPERIMENTAL ENDPOINT: pIC50

INSERT INTO results (compound, test_target, censoring_qualifier, endpoint_value) VALUES
  ('CS(=O)(=O)NC(=O)c1ccc(OCc2cc(Cl)ccc2Cl)cc1 [Example 175]', 'Nav1.7 (or SCN9A) channel (Homo sapiens, UniProt Q15858)', '=', 5.68),
  ('CS(=O)(=O)NC(=O)c1ccc(OCc2ccccc2OC(F)(F)F)c(Cl)c1 [Example 6]', 'Nav1.7 (or SCN9A) channel (Homo sapiens, UniProt Q15858)', '=', 5.89),
  ('CN1CCC(c2cccc(OCc3cc(F)c(C(=O)NS(C)(=O)=O)cc3F)c2)CC1 [Example 106]', 'Nav1.7 (or SCN9A) channel (Homo sapiens, UniProt Q15858)', '=', 5.04),
  ('COc1cc(F)cc(OCc2cc(F)c(C(=O)NS(C)(=O)=O)cc2F)c1 [Example 128]', 'Nav1.7 (or SCN9A) channel (Homo sapiens, UniProt Q15858)', '=', 5.54),
  ('CS(=O)(=O)NC(=O)c1ccc(OCc2ccc(-c3ccccc3)cc2)cc1 [Example 85]', 'Nav1.7 (or SCN9A) channel (Homo sapiens, UniProt Q15858)', '=', 6.35),
  ('CS(=O)(=O)NC(=O)c1cc(F)c(COc2ccc(F)c(Cl)c2C#N)cc1F [Example 163]', 'Nav1.7 (or SCN9A) channel (Homo sapiens, UniProt Q15858)', '<', 6.00),
  ('CS(=O)(=O)NC(=O)c1ccc(OCc2ccc(Cl)cc2F)cc1 [Example 213]', 'Nav1.7 (or SCN9A) channel (Homo sapiens, UniProt Q15858)', '<', 6.52),
  ('COc1ccc(COc2cc(F)c(C(=O)NS(C)(=O)=O)cc2Cl)cc1 [Example 71]', 'Nav1.7 (or SCN9A) channel (Homo sapiens, UniProt Q15858)', '=', 5.41),
  ('COc1cc(OCc2cc(F)c(C(=O)NS(C)(=O)=O)cc2F)ccc1-n1cccn1 [Example 139]', 'Nav1.7 (or SCN9A) channel (Homo sapiens, UniProt Q15858)', '<', 5.52),
  ('CS(=O)(=O)NC(=O)c1cc(F)c(OCc2ccccc2Cl)cc1F [Example 221]', 'Nav1.7 (or SCN9A) channel (Homo sapiens, UniProt Q15858)', '=', 5.74),
  ('CC(C)c1ccc(OCc2cc(F)c(C(=O)NS(C)(=O)=O)cc2F)cc1 [Example 147]', 'Nav1.7 (or SCN9A) channel (Homo sapiens, UniProt Q15858)', '=', 6.77),
  ('CS(=O)(=O)NC(=O)c1ccc(OCc2ccc(Cl)c(Cl)c2)cc1 [Example 3]', 'Nav1.7 (or SCN9A) channel (Homo sapiens, UniProt Q15858)', '=', 6.54),
  ('CS(=O)(=O)NC(=O)c1cc(F)c(COc2cccc(F)c2)cc1F [Example 116]', 'Nav1.7 (or SCN9A) channel (Homo sapiens, UniProt Q15858)', '=', 6.24),
  ('CS(=O)(=O)NC(=O)c1ccc(OCc2c(Cl)cccc2Cl)cc1 [Example 184]', 'Nav1.7 (or SCN9A) channel (Homo sapiens, UniProt Q15858)', '=', 5.59),
  ('CS(=O)(=O)NC(=O)c1ccc(COc2ccc(Cl)cc2Cl)cc1 [Example 24]', 'Nav1.7 (or SCN9A) channel (Homo sapiens, UniProt Q15858)', '=', 6.11),
  ('CS(=O)(=O)NC(=O)c1cc(F)c(OCc2ccc(F)cc2)cc1F [Example 216]', 'Nav1.7 (or SCN9A) channel (Homo sapiens, UniProt Q15858)', '=', 5.42),
  ('CS(=O)(=O)NC(=O)c1cc(F)c(COc2cc(F)cc(C(F)(F)F)c2)cc1F [Example 108]', 'Nav1.7 (or SCN9A) channel (Homo sapiens, UniProt Q15858)', '=', 7.06),
  ('CS(=O)(=O)NC(=O)c1cc(F)c(COc2cc(F)c(F)cc2F)cc1F [Example 57]', 'Nav1.7 (or SCN9A) channel (Homo sapiens, UniProt Q15858)', '=', 5.96),
  ('CCc1ccc(OCc2ccc(C(=O)NS(C)(=O)=O)cc2)cc1 [Example 25]', 'Nav1.7 (or SCN9A) channel (Homo sapiens, UniProt Q15858)', '=', 6.14),
  ('CS(=O)(=O)NC(=O)c1cc(F)c(COc2ccc(Cl)c(F)c2)cc1F [Example 49]', 'Nav1.7 (or SCN9A) channel (Homo sapiens, UniProt Q15858)', '=', 6.80),
  ('CS(=O)(=O)NC(=O)c1cc(F)c(COc2c(F)ccc(F)c2F)cc1F [Example 140]', 'Nav1.7 (or SCN9A) channel (Homo sapiens, UniProt Q15858)', '=', 5.66),
  ('COc1ccc(OCc2cc(F)c(C(=O)NS(C)(=O)=O)cc2F)c(Cl)c1 [Example 157]', 'Nav1.7 (or SCN9A) channel (Homo sapiens, UniProt Q15858)', '=', 5.68),
  ('CS(=O)(=O)NC(=O)c1ccc(OCc2ccc(Cl)cc2)c(C#N)c1 [Example 77]', 'Nav1.7 (or SCN9A) channel (Homo sapiens, UniProt Q15858)', '<', 5.52),
  ('CS(=O)(=O)NC(=O)c1cc(F)c(COc2cc(Cl)ccc2Cl)cc1F [Example 134]', 'Nav1.7 (or SCN9A) channel (Homo sapiens, UniProt Q15858)', '=', 6.33),
  ('CS(=O)(=O)NC(=O)c1cc(F)c(COc2ccccc2C#N)cc1F [Example 137]', 'Nav1.7 (or SCN9A) channel (Homo sapiens, UniProt Q15858)', '<', 5.52),
  ('CS(=O)(=O)NC(=O)c1cc(F)c(COc2cccc(C#N)c2)cc1F [Example 154]', 'Nav1.7 (or SCN9A) channel (Homo sapiens, UniProt Q15858)', '=', 4.96),
  ('CS(=O)(=O)NC(=O)c1cc(F)c(COc2ccc(C#N)c(C#N)c2)cc1F [Example 103]', 'Nav1.7 (or SCN9A) channel (Homo sapiens, UniProt Q15858)', '=', 5.21),
  ('CCc1ccc(OCc2ccc(C(=O)NS(C)(=O)=O)cc2OC)cc1 [Example 42]', 'Nav1.7 (or SCN9A) channel (Homo sapiens, UniProt Q15858)', '=', 6.60),
  ('CS(=O)(=O)NC(=O)c1cc(F)c(COc2ccc3ccccc3c2)cc1F [Example 130]', 'Nav1.7 (or SCN9A) channel (Homo sapiens, UniProt Q15858)', '=', 6.62),
  ('CS(=O)(=O)NC(=O)c1cc(Cl)c(OCc2ccc(Cl)cc2)cc1F [Example 84]', 'Nav1.7 (or SCN9A) channel (Homo sapiens, UniProt Q15858)', '=', 5.19),
  ('CS(=O)(=O)NC(=O)c1ccc(OCc2ccc(F)cc2)cc1 [Example 176]', 'Nav1.7 (or SCN9A) channel (Homo sapiens, UniProt Q15858)', '<', 6.00),
  ('CS(=O)(=O)NC(=O)c1cc(F)c(COc2c(F)cccc2F)cc1F [Example 126]', 'Nav1.7 (or SCN9A) channel (Homo sapiens, UniProt Q15858)', '<', 5.52);
